The reported numbers originate from the supplement of paper PMC6555819.

# Test system: PPARg:RXRa (NR concentration 180 nM, RXRa partner concentration 90 nM)
# ASSAY SUMMARY: PBM binding z-score (relative to random genomic background probes); higher = stronger binding; sequences stand for … in GC…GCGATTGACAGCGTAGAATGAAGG
OBSERVABLE: PBM binding z-score

> print(dat)
                            seq.string  measured.number
 1  TATACAGGGTGAAAGGCCAGAGTACGAATGTCGA             5.05
 2  GGAACGAGGGCAAGTAGATAGCAGAGTTTGATGG             1.21
 3  CGAACTAGGTCATTGACAGGAAAGTGAATAGTAA             7.36
 4  ATATGAAGGTTAGCTGGGGTCATTCAGACTAGGC             2.43
 5  TTACCAAGGTGAAAGCTCGTTGATGCACGCCTTG             0.87
 6  ATCTCTAGGTAACGATAGTTCAGTGAATGCAAAT            0.696
 7  TAGCCTAGCTCATGCGGGCCAGTATAGTGTCGGC           -0.395
 8  ATCTCTAGGTAAAGATCAGTGAAAGATCGATAGA             1.04
 9  GCTGCTAGGTCAGGTTGGTGAGCTAACGGGTACG            0.336
10  CCTACTGAGCCAAAGGTCATTGATTCCAATGCTC             8.72
11  CAAACTAGGTCAAAGGTAAAAGTCGAGCCAACCA               13
12  CCAGACAGGTGATAAGGTAACTCAGCCTCGATTA            0.555
13  AGAAGGAGGGCAATGAGTTGATAGCACGGGTGGC             1.33

====

# System: LXRa homodimer (NR concentration 270 nM)
# ASSAY SUMMARY: PBM binding z-score (relative to random genomic background probes); higher = stronger binding; sequences stand for … in GC…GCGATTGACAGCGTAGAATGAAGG
Listing: PBM binding z-score of selected sequences
OBSERVABLE: PBM binding z-score

> print(dat)
                           seq.string                           subject.of.test           observable  measured.number
1  GCTGCTAGGTAAACTGATGGTCAGCTAAAGCTCG  LXRa homodimer (NR concentration 270 nM)  PBM binding z-score           -0.956
2  ACTTACTGGTCAACGAGGTTATAGCACGCGTATA  LXRa homodimer (NR concentration 270 nM)  PBM binding z-score            0.897
3  TCATATAGGTAAATGCTAGGTGAAAGTACGATCT  LXRa homodimer (NR concentration 270 nM)  PBM binding z-score            0.296
4  CCTAGCAGGCCAATCTGGCTCACTCAAGGCTTGA  LXRa homodimer (NR concentration 270 nM)  PBM binding z-score           -0.459
5  GCGACTCGGGCATCAGCAGGTTACCATAACTTAA  LXRa homodimer (NR concentration 270 nM)  PBM binding z-score           -0.511
